Hey, just so you know, these numbers are from PubChem BioAssay (NCI).

Tested on: SF-539 CNS
method-notes: NCI tumour cell line growth inhibition, 48 h
endpoint-name: TGI

O=C1OC(c2ccccc2)=N/C1=C/N1CCCC1C(=O)O (stereo unspecified)	> 100 µM
CC1(C)Oc2ccc3c(=O)c4ccccc4oc3c2C1C(=O)O (stereo unspecified)	> 100 µM
C/C(=C\CNc1nc(Cl)nc2nc[nH]c12)CO	> 100 µM
COc1ccc(C(C)NNC(=O)c2ccncc2)cc1F (stereo unspecified)	> 100 µM
COc1ccc(N2C(=O)C(N3C(=O)C=CC3=O)C2C=O)cc1 (stereo unspecified)	> 100 µM
COC(=O)c1nn(C(=N)c2ccc(Cl)cc2)c2c1CCCCC2	> 100 µM
COC(=O)[C@@H]1O[C@]12[C@@H](CO[Si](C)(C)C(C)(C)C)O[C@@H](n1cc(C)c(=O)[nH]c1=O)[C@@H]2O[Si](C)(C)C(C)(C)C	75.3 µM
Cc1ccc(S(=O)(=O)c2ccsc2N)cc1	> 100 µM
COc1ccc(N2C(=O)/C(=C/c3ccc(N(CCC#N)CCC#N)cc3)N=C2c2ccccc2)c(OC)c1	> 100 µM
COC(=O)C12C3C4C1C1C2C3C41C(=O)N(C(C)C)C(C)C (stereo unspecified)	> 100 µM
O=C(NCc1ccccc1)c1c(O)c2ccccc2[nH]c1=O	> 100 µM
CN(C)c1ccc(N=C(C#N)c2nc(N)nc(N3CCN(c4ccccc4)CC3)n2)cc1	> 50 µM
Cc1ccc([N+](=O)[O-])cc1NC(=O)C(=O)C1CCC2=C(Sc3ccccc3N2)C1=O (stereo unspecified)	> 100 µM
C/C=C/C(=O)[O-].N.N.N.N.N.[Co+3].[O-][Cl+3]([O-])([O-])[O-]	> 100 µM
COc1cccc2c1[C@]1(O)C(O)CCCC21 (stereo partly specified)	> 100 µM
c1ccc(COc2cccc3cccnc23)cc1	> 100 µM
COC(=O)C1=C(c2cc(OC)c(OC)c(OC)c2)O[C@H](c2ccc3c(c2)OCO3)[C@H]1COC(C)=O	91.1 µM
CCC1CCC2c3c([nH]c4ccccc34)C3C(=O)N(c4ccc(OC)cc4)C(=O)C3C2C1 (stereo unspecified)	> 100 µM
C=C(C)[C@@H]1CC[C@]2(C)[C@H](CC=C3[C@@H]4[C@H](C)[C@@H](C)CC[C@]4(CO)CC[C@]32C)[C@@]1(C)CCCN	1.73 µM
COc1cc2c3c(c1OC)Oc1ccc(cc1)CC1c4c(cc(OC)c(OC)c4Oc4ccc(cc4)CC3N(C)CC2)CCN1C (stereo unspecified)	28 µM
CCN(CC)CCOc1nc2cc(OC)c(OC)cc2c2c1-c1ccc(OC)cc1C2=O	23.6 µM
Cc1ccc(S(=O)(=O)N2CCN(CCO)CCN(S(=O)(=O)c3ccc(C)cc3)CCN(CCO)CC2)cc1	33.4 µM
COc1cccc2ccc3c(c12)C(=O)OC31CCc2c(C)cccc21 (stereo unspecified)	> 100 µM
S=C(Nc1ccccc1)N1CCn2c1nsc2=Nc1ccccc1	> 100 µM
O=C(Nc1ccc(-c2ccnc(Nc3ccc(N4CCOCC4)cc3)n2)cc1)C1CCCN1 (stereo unspecified)	14.2 µM
N#Cc1c(C#N)c(-c2ccccc2)n(/N=C\c2ccccc2)c1N	55.1 µM
